// values below are reported GI50
test system: RXF 393; assay: NCI tumour cell line growth inhibition, 48 h
The source made the active and inactive calls. No stated cut-off is given here; in the data, active = GI50 up to about 1.1 µM and inactive = higher.

Examples with answers:
>  <MOLECULE>
COc1ccc(C(O)CNC(=O)c2ccccc2)cc1 (stereo unspecified)

>  <TARGET>
RXF 393

>  <GI50>
> 100 µM (inactive)

$$$$
>  <MOLECULE>
CCCC(O)c1cn(-c2cccc(S(=O)(=O)O)c2)nn1 (stereo unspecified)

>  <TARGET>
RXF 393

>  <GI50>
> 100 µM (inactive)

$$$$
>  <MOLECULE>
O=C1CC(c2ccccc2)NCCCCN2CC(CN1)C(C(O)c1ccccc1)C2=O (stereo unspecified)

>  <TARGET>
RXF 393

>  <GI50>
> 100 µM (inactive)

$$$$
>  <MOLECULE>
NCCCCCC(CCN)SCC1OC(n2cnc3c(N)ncnc32)C(O)C1O (stereo unspecified)

>  <TARGET>
RXF 393

>  <GI50>
1060 µM (inactive)

$$$$
>  <MOLECULE>
CC(C)OC(=O)c1ccc(NCc2cc(O)ccc2O)cc1

>  <TARGET>
RXF 393

>  <GI50>
1.32 µM (inactive)

$$$$

Now for the molecule whose GI50 we want.
Exam item: So what does the record say about GI50 for `Cc1cccc(C)c1CO` ?
Marked response: > 100 µM (inactive)

* * *

test system: COLO 205; assay: NCI tumour cell line growth inhibition, 48 h
The source made the active and inactive calls. No stated cut-off is given here; in the data, active = GI50 up to about 1.1 µM and inactive = higher.
MEASURED PROPERTY: GI50

Exam item: So what does the record say about GI50 for COC(=O)C(C(=O)C(=O)Nc1ccc(C(F)(F)F)cc1[N+](=O)[O-])c1csc(-n2nc(-c3ccccc3)cc2-c2ccccc2)n1 (stereo unspecified) ?
Marked response: > 100 µM (inactive)

Exam item: So what does the record say about GI50 for `Cc1cccc(C)c1CO` ?
Marked response: > 100 µM (inactive)

Exam item: So what does the record say about GI50 for C[C@]12CCNC(=O)C=C1CC[C@@H]1C2CC[C@@]2(C)C1CC[C@@H]2OC(=O)COc1ccc(N(CCCl)CCCl)cc1 (stereo partly specified) ?
Marked response: 9.08 µM (inactive)

Exam item: So what does the record say about GI50 for `COc1c(O)c(C=O)c2c(O)c(-c3c(C)cc4c(C(C)C)c(OC)c(O)c(C=O)c4c3O)c(C)cc2c1C(C)C` ?
Marked response: 1.89 µM (inactive)

Exam item: So what does the record say about GI50 for CCCC(=O)OCC1OC(n2cc(F)c(=O)[nH]c2=O)C(F)C1OC(=O)CCC (stereo unspecified) ?
Marked response: 36.4 µM (inactive)

Exam item: So what does the record say about GI50 for `CC(=O)Oc1ccc(/C=C/C(=O)O[C@@H](C(=O)O)[C@@H](OC(=O)/C=C/c2ccc(OC(C)=O)c(OC(C)=O)c2)C(=O)O)cc1OC(C)=O` ?
Marked response: > 100 µM (inactive)

* * *

test system: 786-0; experiment: NCI tumour cell line growth inhibition, 48 h
Calls of active or inactive are those of the source. No stated cut-off is given here; in the data, active = GI50 up to about 1.1 µM and inactive = higher.
// values below are reported GI50

Examples with answers:
>  <MOLECULE>
COC(=O)/C(C#N)=C1\CCC(C(=O)OC)N1C (centres undefined)

>  <MEASUREMENT>
> 100 µM (inactive)

$$$$
>  <MOLECULE>
Cc1cc2c(c(C(=O)NCCC(=O)N[C@@H](C)C(=O)OCc3ccccc3)c1)Oc1c(cc(C)cc1C(=O)NCCC(=O)N[C@@H](C)C(=O)OCc1ccccc1)S2

>  <MEASUREMENT>
> 100 µM (inactive)

$$$$
>  <MOLECULE>
CN(C)CCn1c(=O)oc2cc(C(=O)CN3CCOCC3)ccc21

>  <MEASUREMENT>
> 100 µM (inactive)

$$$$
>  <MOLECULE>
Cc1ccccc1C(C#N)/C(=N/NC(=O)c1cc2ccccc2cc1O)C(=O)Nc1cccc(Cl)c1 (centres undefined)

>  <MEASUREMENT>
7.85 µM (inactive)

$$$$
>  <MOLECULE>
COC(=O)N1CC2(CO)C3CC=C(C(=O)Nc4ccccc4Br)C2C1C3Br (centres undefined)

>  <MEASUREMENT>
> 50 µM (inactive)

$$$$
>  <MOLECULE>
O=[N+]([O-])c1ccc2c(c1)nc(Cc1ccc(Cl)cc1)n2C[C@@H]1CCCN2CCCCC12 (some centres undefined)

>  <MEASUREMENT>
11.8 µM (inactive)

$$$$
>  <MOLECULE>
CCCNc1[nH]c(C(C)=O)c(N)c1C(=S)Nc1ccccc1

>  <MEASUREMENT>
26.4 µM (inactive)

$$$$
>  <MOLECULE>
C#C/C=C\CCCCCCCCCCCCCC/C=C\CCCCC#CC(O)C#CCCCC/C=C\CCCCCC/C=C/C(O)C#C (centres undefined)

>  <MEASUREMENT>
11.8 µM (inactive)

$$$$

Exam item: So what does the record say about GI50 for CC1OC2OC3C(OCC(O)C3O)OC(=O)[C@]34CCC(C)(C)CC3C3=CCC5[C@@]6(C)C[C@H](O)[C@H](OC7OC(CO)C(O)C(O)C7OC7OC(COC(=O)CC(C)(O)CC(=O)OC1C(OC1OC(CO)C(O)C(O)C1O)C2O)C(O)C(O)C7O)[C@@](C)(CO)C6CC[C@@]5(C)[C@]3(C)CC4 (some centres undefined) ?
Marked response: 2.84 µM (inactive)

Exam item: So what does the record say about GI50 for `C=Cc1c(-c2ccccc2)cnc2[nH]c3ccccc3c12` ?
Marked response: > 50 µM (inactive)

Exam item: So what does the record say about GI50 for C[C@@H]1OC(=O)N2CCCC(=C3SCCCS3)C12 (some centres undefined) ?
Marked response: > 100 µM (inactive)

Exam item: So what does the record say about GI50 for `Cc1cccc(C)c1CO` ?
Marked response: > 100 µM (inactive)

* * *

system: SW-620; assay: NCI tumour cell line growth inhibition, 48 h
The source made the active and inactive calls. No stated cut-off is given here; in the data, active = GI50 up to about 1.1 µM and inactive = higher.
Please answer using one outcome listed in active, inactive

Example cases with answers are listed next.
>  <MOLECULE>
Clc1ncnc(Cl)c1Cl

>  <CLASS LABEL>
inactive

$$$$
>  <MOLECULE>
CCN(CC)Cc1cc(Nc2c3ccccc3nc3c2[nH]c2ccccc23)ccc1O

>  <CLASS LABEL>
active

$$$$
>  <MOLECULE>
c1ccc(CSc2nc(N3CCOCC3)c3cn[nH]c3n2)cc1

>  <CLASS LABEL>
inactive

$$$$
>  <MOLECULE>
c1ccc2c(c1)Sc1nccc3ccnc-2c13

>  <CLASS LABEL>
inactive

$$$$
>  <MOLECULE>
CC(=O)N1C(Nc2nccs2)CCN1c1ccccc1 (stereo unspecified)

>  <CLASS LABEL>
inactive

$$$$

Now consider a different molecule.
Exam item: For Cc1ccc2c(n1)NC(=O)C(Cc1ccccc1)(N=[N+]=[N-])C2=O (stereo unspecified) , what call appears in the results of this test?
Marked response: inactive

* * *

// values below are reported GI50
system: Hs-578T; assay: NCI tumour cell line growth inhibition, 48 h
Active and inactive are the calls of the source. No stated cut-off is given here; in the data, active = GI50 up to about 1.1 µM and inactive = higher. Numbered stars: 1 amine (or outer) side, 2 acyl side, 3 side chain; on linkers, the order of the positions; unused ones are H or OH. Square brackets hold non-standard residues; d marks the D form. Peptide text beside a SMILES is read from it. * marks the point of attachment. X30 = CC(=O)N(C)SCC(N[*:1])C(=O)[*:2]; Cbz = O=C(OCc1ccccc1)*; Bn = c1ccc(C*)cc1

>  <COMPOUND>
CN(C)C(=O)Oc1ccc[n+](C)c1 [PYRIDOSTIGMINE BROMIDE]

>  <GI50>
> 100 µM (inactive)

$$$$
>  <COMPOUND>
C/C=C\C(CC(=O)NCCc1c[nH]c2ccccc12)CC(=O)OC (centres undefined)

>  <GI50>
> 100 µM (inactive)

$$$$
>  <COMPOUND>
NC(Cc1n[nH]c2ccccc12)C(=O)O (centres undefined)

>  <GI50>
> 100 µM (inactive)

$$$$
>  <COMPOUND>
c1ccc(-c2cnc(-c3ccc(-c4ncc(-c5ccccc5)o4)cc3)o2)cc1

>  <GI50>
> 100 µM (inactive)

$$$$
>  <COMPOUND>
Cc1ccc2c(=O)c(C(=O)N(CCO)CCO)c[nH]c2n1

>  <GI50>
> 100 µM (inactive)

$$$$
>  <COMPOUND>
CCC1=[N+](CC)CCN1CC

>  <GI50>
> 100 µM (inactive)

$$$$

Exam item: So what does the record say about GI50 for CC(C)CC1N=C(OCc2ccccc2)OC1=O (centres undefined) ?
Marked response: > 100 µM (inactive)

Exam item: So what does the record say about GI50 for CC(=O)N(C)SCC(NC(=O)C(Cc1ccccc1)NC(=O)OCc1ccccc1)C(=O)NC(Cc1ccccc1)C(=O)NC(Cc1c[nH]c2ccccc12)C(=O)NC(CCCCNC(=O)OCc1ccccc1)C(=O)NC(C(=O)NC(CSN(C)C(C)=O)C(=O)NC(C(N)=O)C(C)OCc1ccccc1)C(C)OCc1ccccc1 (centres undefined) (Cbz-F[X30]FWK(Cbz)T(Bn)[X30]T(Bn)-NH2; configuration not given here) ?
Marked response: > 100 µM (inactive)

Exam item: So what does the record say about GI50 for Nc1ncnc2c1ncn2C1OC(COP(=O)(O)CP(=O)(O)O)C(O)C1O (centres undefined) ?
Marked response: > 100 µM (inactive)

Exam item: So what does the record say about GI50 for `CC1=CC[C@@]2(CO)[C@@H]([C@@H]1C)[C@H]1CC[C@@H]3[C@@]4(C)CC[C@H](O)C(C)(C)[C@@H]4CC[C@@]3(C)[C@]1(C)C[C@@H]2O` ?
Marked response: 15.8 µM (inactive)

Exam item: So what does the record say about GI50 for COc1ccc(C(O)CNC(=O)c2ccccc2)cc1 (centres undefined) ?
Marked response: > 100 µM (inactive)

Exam item: So what does the record say about GI50 for `O=C1O/C(=C\c2ccc(O)cc2)C(c2ccc(O)c(Cl)c2)=C1Cl` ?
Marked response: > 100 µM (inactive)

Exam item: So what does the record say about GI50 for `c1ccc(CSc2nc(N3CCOCC3)c3cn[nH]c3n2)cc1` ?
Marked response: 13.2 µM (inactive)

Each recorded value in this set is attributed to ChEMBL document CHEMBL1201862.
